# assayComment: TOX21_TR_RXR_BLA_Antagonist_Followup_viability: Viability Assessment in the Tox21 Thyroid Hormone Receptor beta Retinoid X Receptor alpha (RXRa) Antagonism Beta-lactamase (BLA) Follow-Up Assay (AID 2283979)
Records with an inconclusive call do not appear. Active and inactive are the calls of the source. Rule for the calls: active = hit-call score of the fitted dose curve at least 0.9, where 1 is the maximum; inconclusive = response in the unintended direction; inactive = score below 0.9.
In this exercise, the only acceptable responses are active, inactive

Example cases with answers are listed next.
structureSmiles	classLabel
O=[Se](O)O	active
Cc1nc2ccccc2n1Cc1ccc(Cl)cc1	inactive
CO[C@H]1C[C@@H]2CC[C@@H](C)[C@@](O)(O2)C(=O)C(=O)N2CCCC[C@H]2C(=O)O[C@H]([C@H](C)C[C@@H]2CC[C@@H](O)[C@H](OC)C2)CC(=O)[C@H](C)/C=C(\C)[C@@H](O)[C@@H](OC)C(=O)[C@H](C)C[C@H](C)\C=C/C=C/C=C/1C	inactive

Next:
Q: Write down the call the test reported for this molecule. Item: "CC(=O)[C@H]1CC[C@H]2[C@@H]3C=CC4=CC(=O)CC[C@@]4(C)[C@@H]3CC[C@]12C"
A: inactive

Source: PubChem BioAssay (EPA / NIEHS)
